system: BMDCs; assay: LDH release (lytic cell death, pyroptosis) from LPS-primed BMDCs; format: cell-based, mouse; settings: Mus musculus, BMDC, 100 μM; read-out: Average LDH release (% of max.)
Parameter measured: cytotoxicity at 100 µM (%)
Give bare numbers, in %.

Compound	System	Parameter measured	Endpoint result
O=C(NCc1ccccc1)NCc1ccc2ncccc2c1 [EN11-11, 3-benzyl-1-[(quinolin-6-yl)methyl]urea]	BMDCs	cytotoxicity at 100 µM	5.45

Give measured cytotoxicity at 100 µM for every item shown.
1. O=C(NCCc1ccccc1)Nc1ccc2ncccc2c1 [EN11-07, 1-(2-phenylethyl)-3-(quinolin-6-yl)urea]
2. O=C(NCc1ccccc1)Nc1ccc2ncccc2c1 [EN11-16, 1-benzyl-3-(quinolin-6-yl)urea]
3. O=C(NCCCc1ccccc1)Nc1ccc2ncccc2c1 [EN11-13]
4. O=C(Nc1ccc2ncccc2c1)NC1CCCCC1 [EN11-02, 1-cyclohexyl-3-(quin-olin-6-yl)urea]

[13.5, 12.5, 16.3, 10.1]
